List of pIC50 values.
Target: interaction between GMPPNP-bound recombinant K-Ras4B G12C mutant protein and cRAF RAS-binding domain (cRAF-RBD) (Homo sapiens, UniProt P01116, G12C)
Construct: His-tag (N)
Sequence (P01116 with tags, fused parts or gaps isoform P01116-2 G12C): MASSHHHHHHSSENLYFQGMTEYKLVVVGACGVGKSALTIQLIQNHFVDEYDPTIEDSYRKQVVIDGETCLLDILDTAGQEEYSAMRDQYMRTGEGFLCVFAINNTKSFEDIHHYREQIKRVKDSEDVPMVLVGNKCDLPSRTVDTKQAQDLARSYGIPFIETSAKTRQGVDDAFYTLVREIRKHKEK
Test: Inhibitory activity on interaction between KRAS G12C and cRAF (Alpha technology)
Conditions: GMPPNP-bound KRAS G12C incubated with compound 25° C. 1 hour; Table 2-1; read-out: IC50
Procedure: Interaction between recombinant K-Ras4B G12C mutant protein (amino acids 1-169, SEQ ID NO:2) and cRAF RAS-binding domain (cRAF-RBD, amino acids 50-132, Jena Biosciences GmbH) was measured using Alpha technology (PerkinElmer Inc.). Recombinant KRAS G12C protein with an N-terminal His-tag was expressed in E. coli and purified by affinity chromatography. […]
# pIC50: negative log10 of molar concentration; output just the value

1. C[C@@H](O)[C@@H]1CCCN1C/C=C/C(=O)Nc1c(F)cc(C(=O)c2cc3c4c(cccn24)-c2c(C(F)(F)F)cc4c(ncn4C)c2N(C)CC3)cc1F; 7.29
2. Cc1nc2c3c(c(C(F)(F)F)cc2n1C)-c1cccn2c(C(=O)c4cc(F)c(NC(=O)C=CCNC5CCOC5)c(F)c4)nc(c12)CCN3C (stereo not drawn); 7.63

Challenge: May I ask what pIC50 has been recorded for COCc1nc2c3c(c(C(F)(F)F)cc2n1C)-c1cccn2c(C(=O)c4cc(F)c(NC(=O)/C=C/CNC5(C)CC5)c(F)c4)nc(c12)CCN3C ?
Response given: 7.39
